Taken from patent US20250152585A1.

experimentalSystem: full length N-terminally FLAG-tagged PARP1 (Homo sapiens)
experimentNotes: PARP1 probe displacement HTRF assay
recordedConditions: read-out: PARP1 HTRF; binned Kd, probe displacement HTRF
reportedEndpoint: Kd

| compound | reportedEndpoint | measured |
| --- | --- | --- |
| CC(=O)Nc1ccc(N2CCC(N3CCC(c4cc5ccccc5c(=O)[nH]4)C3)CC2)c(Cl)c1 (single isomer, unassigned) [Compound 273a] | Kd | 100 to 1000 nM |

Incoming: Form field: reported Kd of CNC(=O)c1ccc(N2CCC(N3CCC(c4nc5sc(C)c(C)c5c(=O)[nH]4)C3)CC2)cn1 (single isomer, unassigned) [Compound 221a]
Outgoing: 10 to 100 nM

Incoming: Now this one: CNC(=O)c1cc(C(F)(F)F)c(N2CCC(N3CCC(c4cc5cccc(F)c5c(=O)[nH]4)C3)CC2)cn1 (single isomer, unassigned) [Compound 308b]
Outgoing: < 10 nM

* * *

experimentalSystem: full length N-terminally FLAG-tagged PARP1 (Homo sapiens, UniProt P09874)
Sequence (P09874 whole entry): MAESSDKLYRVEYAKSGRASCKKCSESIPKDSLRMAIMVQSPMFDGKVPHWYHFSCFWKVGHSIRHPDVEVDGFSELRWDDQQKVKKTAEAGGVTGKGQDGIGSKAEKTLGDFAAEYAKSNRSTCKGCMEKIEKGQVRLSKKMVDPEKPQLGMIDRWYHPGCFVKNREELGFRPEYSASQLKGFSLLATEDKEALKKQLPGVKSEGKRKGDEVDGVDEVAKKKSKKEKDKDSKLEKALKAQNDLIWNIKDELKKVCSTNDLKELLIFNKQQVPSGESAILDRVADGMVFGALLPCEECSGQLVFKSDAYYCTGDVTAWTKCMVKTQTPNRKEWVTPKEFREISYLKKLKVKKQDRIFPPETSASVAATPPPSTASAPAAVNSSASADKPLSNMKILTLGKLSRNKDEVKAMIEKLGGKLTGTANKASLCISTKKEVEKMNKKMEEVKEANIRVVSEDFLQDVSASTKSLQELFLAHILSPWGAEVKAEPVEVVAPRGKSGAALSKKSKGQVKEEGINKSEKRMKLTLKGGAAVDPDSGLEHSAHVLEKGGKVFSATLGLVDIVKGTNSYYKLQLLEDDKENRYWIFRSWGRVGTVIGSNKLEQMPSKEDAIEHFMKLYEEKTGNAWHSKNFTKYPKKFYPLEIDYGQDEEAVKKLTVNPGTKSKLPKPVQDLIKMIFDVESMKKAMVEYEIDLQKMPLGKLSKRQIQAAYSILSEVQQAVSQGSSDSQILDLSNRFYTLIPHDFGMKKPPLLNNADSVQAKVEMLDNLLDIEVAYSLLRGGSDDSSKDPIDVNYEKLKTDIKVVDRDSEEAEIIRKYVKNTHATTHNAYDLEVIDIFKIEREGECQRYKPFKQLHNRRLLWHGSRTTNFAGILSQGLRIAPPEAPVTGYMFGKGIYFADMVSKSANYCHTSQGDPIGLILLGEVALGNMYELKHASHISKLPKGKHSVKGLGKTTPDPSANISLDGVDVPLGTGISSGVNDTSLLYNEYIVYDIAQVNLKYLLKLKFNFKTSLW
experimentNotes: PARP1 probe displacement HTRF assay
recordedConditions: read-out: PARP1 HTRF; binned Kd, PARP1 probe displacement HTRF
reportedEndpoint: Kd

Sample answers from the record:
| molecule | experimentalSystem | Kd |
| --- | --- | --- |
| CCNC(=O)c1ccc(N2CCC(N3CCCC(c4nc5ccccc5c(=O)[nH]4)C3)CC2)cn1 (single isomer, unassigned) [Compound 122a] | full length N-terminally FLAG-tagged PARP1 (Homo sapiens, UniProt P09874) | 10 to 100 nM |
| CNC(=O)c1ccc(N2CCC(N3CCC(c4nc5cc(Cl)ccc5c(=O)[nH]4)C3)CC2)cn1 (single isomer, unassigned) [Compound 87a] | full length N-terminally FLAG-tagged PARP1 (Homo sapiens, UniProt P09874) | 100 to 1000 nM |
| CNC(=O)c1ccc(N2CC(N3CCC(c4nc5ccccc5c(=O)[nH]4)C3)C2)cn1 (single isomer, unassigned) [Compound 61b] | full length N-terminally FLAG-tagged PARP1 (Homo sapiens, UniProt P09874) | < 10 nM |
| CNC(=O)c1ccc(N2CCC(N3CCC(O)(c4nc5ccccc5c(=O)[nH]4)C3)CC2)cn1 (single isomer, unassigned) [Compound 140b] | full length N-terminally FLAG-tagged PARP1 (Homo sapiens, UniProt P09874) | 10 to 100 nM |
| CNC(=O)c1cnc(N2CCC(N3CCCC(c4nc5ccccc5c(=O)[nH]4)C3)CC2)cn1 (single isomer, unassigned) [Compound 99a] | full length N-terminally FLAG-tagged PARP1 (Homo sapiens, UniProt P09874) | 1000 to 10000 nM |
| CNC(=O)c1ccc(N2CCC(N3CCC(c4nc5c(F)ccc(F)c5c(=O)[nH]4)C3)CC2)cn1 (single isomer, unassigned) [Compound 182a] | full length N-terminally FLAG-tagged PARP1 (Homo sapiens, UniProt P09874) | 10 to 100 nM |
| CNC(=O)c1ccc(N2CCC(N3CCC4CC4(c4nc5ccccc5c(=O)[nH]4)C3)CC2)cn1 (single isomer, unassigned) [Compound 90b] | full length N-terminally FLAG-tagged PARP1 (Homo sapiens, UniProt P09874) | 100 to 1000 nM |
| CNC(=O)c1ccc(N2CCC(N3CCC(c4nc5c(F)cccc5c(=O)[nH]4)C3)CC2)cn1 (single isomer, unassigned) [Compound 121a] | full length N-terminally FLAG-tagged PARP1 (Homo sapiens, UniProt P09874) | 10 to 100 nM |

Continue with the molecule presented below.
Incoming: Form field: reported Kd of CNC(=O)c1ccc(N2CCC(N3CCC(c4nc5[nH]cc(C(F)(F)F)c5c(=O)[nH]4)C3)CC2)cn1 (racemic) [Compound 150rac]
Outgoing: < 10 nM
